Biological target: T1, topo VI holoenzyme WT (Methanosarcina mazei, UniProt Q8PUB7;Q8PUB8 1-369;1-621)
T1 sequence 1: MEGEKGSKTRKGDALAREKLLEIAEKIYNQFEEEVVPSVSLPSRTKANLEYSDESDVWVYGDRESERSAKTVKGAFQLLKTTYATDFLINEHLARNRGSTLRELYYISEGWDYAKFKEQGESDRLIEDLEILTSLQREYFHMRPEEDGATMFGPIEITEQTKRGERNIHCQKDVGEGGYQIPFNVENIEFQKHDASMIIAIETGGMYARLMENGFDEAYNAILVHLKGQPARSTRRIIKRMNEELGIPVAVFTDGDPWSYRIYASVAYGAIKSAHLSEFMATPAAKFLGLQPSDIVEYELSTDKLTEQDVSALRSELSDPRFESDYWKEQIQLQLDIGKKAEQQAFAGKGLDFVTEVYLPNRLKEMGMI
T1 sequence 2: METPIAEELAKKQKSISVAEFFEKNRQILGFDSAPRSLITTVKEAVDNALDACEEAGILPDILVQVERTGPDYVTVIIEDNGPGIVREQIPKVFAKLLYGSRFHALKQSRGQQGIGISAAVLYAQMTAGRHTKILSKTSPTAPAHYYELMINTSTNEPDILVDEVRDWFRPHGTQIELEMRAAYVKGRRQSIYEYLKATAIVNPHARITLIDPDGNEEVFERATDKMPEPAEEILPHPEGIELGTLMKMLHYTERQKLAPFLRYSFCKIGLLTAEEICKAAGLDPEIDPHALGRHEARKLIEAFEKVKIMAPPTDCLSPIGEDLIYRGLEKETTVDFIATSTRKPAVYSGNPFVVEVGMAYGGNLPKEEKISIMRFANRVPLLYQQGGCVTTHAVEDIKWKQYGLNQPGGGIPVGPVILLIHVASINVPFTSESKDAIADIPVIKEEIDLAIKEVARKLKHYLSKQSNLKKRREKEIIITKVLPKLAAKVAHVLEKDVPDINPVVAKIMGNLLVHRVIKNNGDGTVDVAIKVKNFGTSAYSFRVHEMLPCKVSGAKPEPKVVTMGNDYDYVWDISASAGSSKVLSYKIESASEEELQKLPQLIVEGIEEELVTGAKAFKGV
Test: fluorescence anisotropy; Fluorescence anisotropy, 20 nM FAM-labelled DNA, topo VI 0 and 3.9-4000 nM, no nucleotide; buffer, salt, pH and temperature not given in supplied text
Details: protein: recombinant; tags: N-terminal His6-TEV on Top6B, removed; chain copies: 2;2; label: 5'-FAM strand 2; four-way Holliday junction, stacked-X, two GAAA-capped arms
pKd: −log10 of the molar value.
Readout Label: pKd

{"columns": ["Binder", "Readout Label", "Value"],
 "data": [
  ["16 x 20 bp stacked junction (structured_DNA) DNA 1: CGAATACTCAGCTCAACCGAAAGGTTGAGCCTTCGCTCGAAAGAGCGAAGTACTCTTCCG DNA 2: CGGAAGAGTATGAGTATTCG", "pKd", 6.91]
]}
